measuredTarget: IITAT (Homo sapiens, UniProt P00734, E366T/I364T/V365A)
experimentalProtocol: Rescue of IITAT cleavage at Arg-271 by DAPA (areas under mIIa progress curves)
cond: DAPA 0-300 μM; 5.4 μM IITAT, 0.8 nM prothrombinase; read-out: DAPA concentration for half-maximal effect on rescue of second half-reaction in IITAT cleavage
pEC50: −log10 of the molar value.
metric: pEC50

> print(dat)
                                   compound    val
1  CCC1CCN(C(=O)C(CCCNC(=N)N)NS(=O)(=O)c2cccc3c(N(C)C)cccc23)CC1 (stereo not shown) [DAPA]  ~4.70
